TESTED TARGET: T1, Y367H-N452I GDH-B (HI) (UniProt P13650 25-478, Y367H | N452I)
T1 construct: also called antagonistic template; source: E. coli PP2418 (pTrc99A), soluble, purified (Resource S cation exchange, Superdex 200 size exclusion chromatography)
T1 sequence: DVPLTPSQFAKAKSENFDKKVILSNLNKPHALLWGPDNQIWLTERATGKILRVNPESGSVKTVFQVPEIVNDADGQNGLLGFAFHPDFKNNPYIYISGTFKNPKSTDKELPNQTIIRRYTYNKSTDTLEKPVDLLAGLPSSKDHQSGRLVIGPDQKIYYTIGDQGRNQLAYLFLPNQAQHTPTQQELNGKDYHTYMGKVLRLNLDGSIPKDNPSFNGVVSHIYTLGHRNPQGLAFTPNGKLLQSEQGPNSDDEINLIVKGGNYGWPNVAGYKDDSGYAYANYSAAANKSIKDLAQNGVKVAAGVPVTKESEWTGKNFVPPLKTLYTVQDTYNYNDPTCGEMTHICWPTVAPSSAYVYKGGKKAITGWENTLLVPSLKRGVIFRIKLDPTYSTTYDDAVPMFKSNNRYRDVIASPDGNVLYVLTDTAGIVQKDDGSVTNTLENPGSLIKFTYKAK
ASSAY PROTOCOL: SPR
TEST CONTEXT: both partners purified
MEASURED ENDPOINT: Kd (µM)
# output: bare number, implied unit µM

ELITNSETTQWF (12-mer selected from the Ph.D.-12 phage display peptide library; Immobilised on a CM5 chip by amine coupling in the SPR; source: synthetic peptide, bought: Sigma Aldrich Japan) [HI3-2 synthesized 12-mer peptide]
88

Then there is this binder:
Ask | Output measured Kd for this item: SDLSPIQSLSAI (12-mer selected from the Ph.D.-12 phage display peptide library; Immobilised on a CM5 chip by amine coupling in the SPR; also called DEE4–9; source: synthetic peptide, bought: Sigma Aldrich Japan) [DEE4–6 synthesized 12-mer peptide]
Reply | 230
